target: 5-hydroxytryptamine receptor 1A (Rattus norvegicus, UniProt P19327); experiment: Compound was tested for the displacement of [3H]-8-OH- DPAT from rat brain 5-hydroxytryptamine 1A receptor
Sequence (P19327 whole entry): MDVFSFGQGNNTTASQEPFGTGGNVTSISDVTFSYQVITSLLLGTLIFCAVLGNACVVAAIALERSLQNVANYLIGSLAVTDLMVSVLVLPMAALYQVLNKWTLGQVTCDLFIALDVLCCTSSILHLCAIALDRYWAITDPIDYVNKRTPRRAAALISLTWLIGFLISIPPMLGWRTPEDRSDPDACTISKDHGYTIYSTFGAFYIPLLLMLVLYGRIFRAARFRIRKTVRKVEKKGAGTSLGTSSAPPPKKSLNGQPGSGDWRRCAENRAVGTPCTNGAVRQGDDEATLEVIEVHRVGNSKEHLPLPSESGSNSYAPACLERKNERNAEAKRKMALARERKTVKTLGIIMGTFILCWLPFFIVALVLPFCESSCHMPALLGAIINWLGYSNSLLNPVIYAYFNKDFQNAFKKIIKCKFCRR
The following molecules are shown together with reported Ki values.
Express it in nM; write the number only.

| sampleSmiles | Ki / nM |
| --- | --- |
| CN(C)CCc1c[nH]c2ccsc12 | 76 |
| CN(C)CCc1c[nH]c2sccc12 | 184 |

Now for another entry.
-- ask What does the data say about its Ki? Entry: CN(C)CCc1c[nH]c2ccccc12
-- reply 259

---

target: UniProt:P41595; test: Compound was tested for the displacement of [3H]5-HT from cloned human 5-hydroxytryptamine 2B receptor
measuredQuantity: Ki (nM)
Express it in nM; write the number only.

-- ask What does the data say about its Ki? Entry: CN(C)CCc1c[nH]c2ccsc12
-- reply 214

---

target: UniProt:P28223; experiment: Compound was tested for the displacement of [125I]-DOI from clone human 5-hydroxytryptamine 2A receptor
Sequence (P28223 whole entry): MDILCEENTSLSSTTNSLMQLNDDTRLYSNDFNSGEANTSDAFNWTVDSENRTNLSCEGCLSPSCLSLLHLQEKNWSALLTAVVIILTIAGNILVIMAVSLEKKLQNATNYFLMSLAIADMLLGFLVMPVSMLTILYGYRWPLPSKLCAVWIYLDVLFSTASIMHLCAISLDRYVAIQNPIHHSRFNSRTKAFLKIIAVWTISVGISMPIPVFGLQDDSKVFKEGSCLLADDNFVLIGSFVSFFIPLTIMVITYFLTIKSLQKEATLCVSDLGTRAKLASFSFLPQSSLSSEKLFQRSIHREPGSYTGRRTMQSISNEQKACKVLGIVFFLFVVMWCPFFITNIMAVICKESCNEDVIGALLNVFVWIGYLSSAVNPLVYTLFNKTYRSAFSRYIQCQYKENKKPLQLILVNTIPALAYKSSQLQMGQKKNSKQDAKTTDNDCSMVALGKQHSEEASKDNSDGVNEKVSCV
measuredQuantity: pKi
# log scale: pKi equals minus log10 of the concentration in mol/L

-- ask What is its pKi for UniProt:P28223? Entry: CN(C)CCc1c[nH]c2sccc12
-- reply 6.97

---

biological target: 5-hydroxytryptamine receptor 2B (Homo sapiens, UniProt P41595); assay: Compound was tested for the displacement of [3H]5-HT from clone human 5-hydroxytryptamine 2B receptor
Sequence (P41595 whole entry): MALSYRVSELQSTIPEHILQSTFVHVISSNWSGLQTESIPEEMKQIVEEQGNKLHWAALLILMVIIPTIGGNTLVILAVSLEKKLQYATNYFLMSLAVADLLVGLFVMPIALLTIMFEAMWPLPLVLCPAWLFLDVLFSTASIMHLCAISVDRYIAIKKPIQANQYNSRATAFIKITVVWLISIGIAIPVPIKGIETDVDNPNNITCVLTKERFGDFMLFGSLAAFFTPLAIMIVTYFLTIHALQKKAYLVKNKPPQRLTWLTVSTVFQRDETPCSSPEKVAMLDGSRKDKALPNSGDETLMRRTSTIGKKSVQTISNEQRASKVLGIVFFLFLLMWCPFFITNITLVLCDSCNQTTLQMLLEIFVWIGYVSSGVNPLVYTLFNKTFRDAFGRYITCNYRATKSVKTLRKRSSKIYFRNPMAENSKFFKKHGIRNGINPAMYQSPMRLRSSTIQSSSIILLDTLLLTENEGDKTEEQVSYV
measuredQuantity: pKi
# log scale: pKi equals minus log10 of the concentration in mol/L

-- ask What does the data say about its pKi? Entry: CN(C)CCc1c[nH]c2sccc12
-- reply 6.32

These entries and their values trace back to ChEMBL document CHEMBL1132613.
